tested on: NB-4; assay: Cytostatic activity against human NB4 cells; type: functional, cell-based
pIC50: −log10 of the molar value.
Reported pIC50 values follow for various compounds
readoutLabel: pIC50

compound="COC(=O)[C@H](C)NP(=O)(OC[C@H]1O[C@@H](n2ccc(=O)[nH]c2=O)[C@@H](O)[C@@H]1O)Oc1ccccc1 (stereo partly specified)" readoutlabel=pIC50 reading=4.28
compound="O=C(CNP(=O)(OC[C@H]1O[C@@H](n2ccc(=O)[nH]c2=O)[C@@H](O)[C@@H]1O)Oc1ccccc1)OCc1ccccc1 (stereo partly specified)" readoutlabel=pIC50 reading=4.28
compound="CC(C)OC(=O)[C@H](C)NP(=O)(OC[C@H]1O[C@@H](n2ccc(=O)[nH]c2=O)[C@@H](O)[C@@H]1O)Oc1cccc2ccccc12 (stereo partly specified)" readoutlabel=pIC50 reading=4.11
compound="O=c1ccn([C@@H]2O[C@H](CO)[C@@H](O)[C@@H]2O)c(=O)[nH]1 [ARAURIDINE]" readoutlabel=pIC50 reading=4.16
compound="C[C@@H](NP(=O)(OC[C@H]1O[C@@H](n2ccc(=O)[nH]c2=O)[C@@H](O)[C@@H]1O)Oc1ccccc1)C(=O)OCc1ccccc1 (stereo partly specified)" readoutlabel=pIC50 reading=4.06
compound="C[C@H](NP(=O)(OC[C@H]1O[C@@H](n2ccc(=O)[nH]c2=O)[C@@H](O)[C@@H]1O)Oc1ccccc1)C(=O)OCc1ccccc1 (stereo partly specified)" readoutlabel=pIC50 reading=4.42

* * *

experiment: Metabolic stability assessed as half life in the presence of carboxypeptidase Y after 3 hrs at pH 7.6; format: ADME; details: Saccharomyces cerevisiae (yeast)
readoutLabel: half-life (min)

compound="C[C@H](NP(=O)(OC[C@H]1O[C@@H](n2ccc(=O)[nH]c2=O)[C@@H](O)[C@@H]1O)Oc1ccccc1)C(=O)OCc1ccccc1 (stereo partly specified)" resultunits=min reading=15

* * *

system: L1210; experiment: Cytostatic activity mouse L1210 cells; type: functional, cell-based
pIC50: −log10 of the molar value.
Attribute: pIC50
readoutLabel: pIC50

molecule="C[C@H](NP(=O)(OC[C@H]1O[C@@H](n2ccc(=O)[nH]c2=O)[C@@H](O)[C@@H]1O)Oc1ccccc1)C(=O)OCc1ccccc1 (stereo partly specified)" qualifieroperator== reading=3.74
molecule="CC(C)OC(=O)[C@H](C)NP(=O)(OC[C@H]1O[C@@H](n2ccc(=O)[nH]c2=O)[C@@H](O)[C@@H]1O)Oc1cccc2ccccc12 (stereo partly specified)" qualifieroperator== reading=3.60
molecule="O=C(CNP(=O)(OC[C@H]1O[C@@H](n2ccc(=O)[nH]c2=O)[C@@H](O)[C@@H]1O)Oc1ccccc1)OCc1ccccc1 (stereo partly specified)" qualifieroperator== reading=3.59
molecule="O=c1ccn([C@@H]2O[C@H](CO)[C@@H](O)[C@@H]2O)c(=O)[nH]1 [ARAURIDINE]" qualifieroperator== reading=3.77
molecule="COC(=O)[C@H](C)NP(=O)(OC[C@H]1O[C@@H](n2ccc(=O)[nH]c2=O)[C@@H](O)[C@@H]1O)Oc1ccccc1 (stereo partly specified)" qualifieroperator=< reading=3.30
molecule="C[C@@H](NP(=O)(OC[C@H]1O[C@@H](n2ccc(=O)[nH]c2=O)[C@@H](O)[C@@H]1O)Oc1ccccc1)C(=O)OCc1ccccc1 (stereo partly specified)" qualifieroperator== reading=3.33

* * *

system: Sindbis virus; assay: Antiviral activity against Sindbis virus assessed as inhibition of virus-induced cytopathicity by cell based assay; assay type: functional, organism-based
Calls of active or inactive are those of the source. The calls are words filed in the database; no cut-off is given here.
readoutLabel: inhibition

molecule="C[C@@H](NP(=O)(OC[C@H]1O[C@@H](n2ccc(=O)[nH]c2=O)[C@@H](O)[C@@H]1O)Oc1ccccc1)C(=O)OCc1ccccc1 (stereo partly specified)" reading=inactive
molecule="C[C@H](NP(=O)(OC[C@H]1O[C@@H](n2ccc(=O)[nH]c2=O)[C@@H](O)[C@@H]1O)Oc1ccccc1)C(=O)OCc1ccccc1 (stereo partly specified)" reading=inactive
molecule="CC(C)OC(=O)[C@H](C)NP(=O)(OC[C@H]1O[C@@H](n2ccc(=O)[nH]c2=O)[C@@H](O)[C@@H]1O)Oc1cccc2ccccc12 (stereo partly specified)" reading=inactive
molecule="COC(=O)[C@H](C)NP(=O)(OC[C@H]1O[C@@H](n2ccc(=O)[nH]c2=O)[C@@H](O)[C@@H]1O)Oc1ccccc1 (stereo partly specified)" reading=inactive
molecule="O=C(CNP(=O)(OC[C@H]1O[C@@H](n2ccc(=O)[nH]c2=O)[C@@H](O)[C@@H]1O)Oc1ccccc1)OCc1ccccc1 (stereo partly specified)" reading=inactive
molecule=O=c1ccn([C@@H]2O[C@H](CO)[C@@H](O)[C@@H]2O)c(=O)[nH]1 reading=inactive

The values you see were collected from ChEMBL document CHEMBL1156147.
